Cited source: patent US10189859B2

# experimentalSystem: Nav1.7 sodium channels (human SCN9A gene) (Homo sapiens (Human))
# Sequence (Q15858 whole entry): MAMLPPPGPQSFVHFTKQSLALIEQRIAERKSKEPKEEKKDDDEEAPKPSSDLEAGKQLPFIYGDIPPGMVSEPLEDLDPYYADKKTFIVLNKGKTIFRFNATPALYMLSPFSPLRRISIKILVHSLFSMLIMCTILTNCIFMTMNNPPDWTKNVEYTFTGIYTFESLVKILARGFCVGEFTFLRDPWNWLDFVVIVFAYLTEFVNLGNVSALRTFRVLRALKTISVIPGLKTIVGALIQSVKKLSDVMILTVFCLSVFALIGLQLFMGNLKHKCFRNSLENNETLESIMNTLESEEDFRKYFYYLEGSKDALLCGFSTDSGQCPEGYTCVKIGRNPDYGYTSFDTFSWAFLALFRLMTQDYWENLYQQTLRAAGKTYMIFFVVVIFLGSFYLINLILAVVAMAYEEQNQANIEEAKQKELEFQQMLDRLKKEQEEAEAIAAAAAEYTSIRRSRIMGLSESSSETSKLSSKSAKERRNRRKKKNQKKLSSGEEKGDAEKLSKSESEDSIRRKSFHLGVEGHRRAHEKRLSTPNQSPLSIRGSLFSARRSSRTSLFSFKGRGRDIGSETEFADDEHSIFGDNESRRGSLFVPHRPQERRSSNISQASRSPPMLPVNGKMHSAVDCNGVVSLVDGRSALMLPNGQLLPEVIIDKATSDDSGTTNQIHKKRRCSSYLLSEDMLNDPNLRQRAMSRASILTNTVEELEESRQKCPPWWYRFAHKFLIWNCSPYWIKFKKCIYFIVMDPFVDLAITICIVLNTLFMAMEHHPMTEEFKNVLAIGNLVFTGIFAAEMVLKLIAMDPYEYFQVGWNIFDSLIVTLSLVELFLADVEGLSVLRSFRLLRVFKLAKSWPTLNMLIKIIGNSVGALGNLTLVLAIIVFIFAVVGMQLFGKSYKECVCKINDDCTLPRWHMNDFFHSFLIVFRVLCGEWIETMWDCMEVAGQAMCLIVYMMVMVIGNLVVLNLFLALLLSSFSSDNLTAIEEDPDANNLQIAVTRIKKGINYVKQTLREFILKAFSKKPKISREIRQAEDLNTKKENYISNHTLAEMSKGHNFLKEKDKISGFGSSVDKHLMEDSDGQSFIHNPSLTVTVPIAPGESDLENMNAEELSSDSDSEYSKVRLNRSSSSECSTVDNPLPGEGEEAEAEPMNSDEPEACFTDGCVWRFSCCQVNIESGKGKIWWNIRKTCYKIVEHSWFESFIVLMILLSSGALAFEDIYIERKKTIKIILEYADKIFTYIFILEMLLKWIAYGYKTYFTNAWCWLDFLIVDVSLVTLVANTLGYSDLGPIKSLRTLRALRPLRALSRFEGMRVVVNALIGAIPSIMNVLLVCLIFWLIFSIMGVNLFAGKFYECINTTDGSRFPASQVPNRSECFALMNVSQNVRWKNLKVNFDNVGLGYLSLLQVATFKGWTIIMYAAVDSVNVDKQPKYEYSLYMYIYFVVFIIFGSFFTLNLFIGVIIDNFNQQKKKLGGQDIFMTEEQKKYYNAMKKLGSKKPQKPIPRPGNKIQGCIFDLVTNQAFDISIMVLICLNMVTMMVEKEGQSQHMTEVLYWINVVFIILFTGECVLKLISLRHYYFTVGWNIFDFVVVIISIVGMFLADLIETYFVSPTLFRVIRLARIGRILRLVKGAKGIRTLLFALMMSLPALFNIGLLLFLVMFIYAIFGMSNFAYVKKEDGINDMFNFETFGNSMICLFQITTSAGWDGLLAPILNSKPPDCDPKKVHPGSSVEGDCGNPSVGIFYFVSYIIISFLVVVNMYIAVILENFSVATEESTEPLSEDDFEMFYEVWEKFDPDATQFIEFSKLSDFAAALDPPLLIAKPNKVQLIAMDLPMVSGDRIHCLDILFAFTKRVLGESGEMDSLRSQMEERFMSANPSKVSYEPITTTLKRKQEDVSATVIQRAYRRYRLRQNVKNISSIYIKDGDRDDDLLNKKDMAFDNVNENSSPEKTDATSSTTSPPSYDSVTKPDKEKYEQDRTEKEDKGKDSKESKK
# assay: Automated patch clamp (IonWorks Barracuda) of Nav1.7 stably expressed in CHO cells
# Assay type: cell-based
# experimentalConditions: read-out: Inactivated state IC50
pIC50: −log10 of the molar value. Where a name gives a salt, the structure may show the parent alone.
observable: pIC50

These recorded examples may help you get a feel for the data.
molecule=NC(=O)CNCCOCCNc1nnc(-c2cccc(Cl)c2Cl)c(N)n1 observable=pIC50 reported="< 3.52"
molecule="Nc1nc(N2CCN3C(=O)OC[C@@H]3C2)nnc1-c1cccc(Cl)c1Cl [Compound 128, HCl salt]" observable=pIC50 reported="< 3.52"
molecule=COC[C@H](O)CN1CCN(c2nnc(-c3cccc(Cl)c3Cl)c(N)n2)CC1 observable=pIC50 reported="> 4.30"
molecule=Nc1nc(N2CCN3C(=O)OC[C@H]3C2)nnc1-c1cccc(Cl)c1Cl observable=pIC50 reported="< 3.52"
molecule="Nc1nc(N2CCN(CC(O)CO)C[C@H]2CO)nnc1-c1cccc(Cl)c1Cl (some centres unmarked)" observable=pIC50 reported="< 3.52"

Specify pIC50 for Nc1nc(N2CCN3C(=O)COC[C@H]3C2)nnc1-c1cccc(Cl)c1Cl [Compound 130, HCl salt] and stop.
3.69

Specify pIC50 for CS(=O)(=O)CCN1CCN(c2nnc(-c3cccc(Cl)c3Cl)c(N)n2)CC1 and stop.
< 3.52

Specify pIC50 for CC(C)(CO)N1CCN(c2nnc(-c3cccc(Cl)c3Cl)c(N)n2)CC1 and stop.
4.25

Specify pIC50 for COC(=O)CNCCOCCNc1nnc(-c2cccc(Cl)c2Cl)c(N)n1 and stop.
< 3.52

Specify pIC50 for CN(CCO)c1nnc(-c2cccc(Cl)c2Cl)c(N)n1 and stop.
3.76

Specify pIC50 for Nc1nc(N2CCN3CCOC[C@@H]3C2)nnc1-c1cccc(Cl)c1Cl [Compound 131, di HCl salt] and stop.
3.73
